system_under_test: T1, hIL2Rb-his (human, UniProt P14784 27-240)
T1 sequence: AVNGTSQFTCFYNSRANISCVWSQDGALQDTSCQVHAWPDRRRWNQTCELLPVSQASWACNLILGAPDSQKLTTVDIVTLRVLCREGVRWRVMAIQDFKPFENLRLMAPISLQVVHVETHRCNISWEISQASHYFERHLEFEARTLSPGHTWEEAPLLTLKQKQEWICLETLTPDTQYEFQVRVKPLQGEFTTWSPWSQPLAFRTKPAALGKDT
measurement_protocol: SPR Biacore T200; Mono-Fc VHH captured on Protein A chip, hIL2Rb-his analyte; 1:1 Langmuir fit
measured_parameter: kon

[[record]]
binder = "hIL2Rb_VHH5 Mono-Fc VHH (Fc fusion, not shown: a dimerising Fc or GST) QVQLQESGGGSVQVGGSLRLSCATSGDTKSIRCMGWFRQTPGKEREGIAAIDREGFATYADSVYDRFTIAQDNAQNTLYLEMNALKPEDTAMYYCAAQNMCRVVRGAMTGVDYWGKGTQVTVSS"
reported_result = "3.82e+06 M⁻¹ s⁻¹"

[[record]]
binder = "hIL2Rb_VHH3 Mono-Fc VHH (Fc fusion, not shown: a dimerising Fc or GST) QVQLQESGGGLVQPGGSLKLSCAASGFRFSNYGMSWVRQAPGEGLEWVSYINGDGSRTHYADSVKGRFTISRDNAKNTLYLQLNSLKTEDTAMYYCEKGLSRDGWSLSAASRGQGTQVTVSS"
reported_result = "157000 M⁻¹ s⁻¹"

[[record]]
binder = "hIL2Rb_VHH6 Mono-Fc VHH (Fc fusion, not shown: a dimerising Fc or GST) QVQLQESGGGSVQAGGSLRLSCAASEYTASRYCMAWFRQAPGKEREGVAAIHPGGGTTYYADSVKGRFSISQDSADNTLYLQMNSLKPEDTAMYYCAAGSLWVPFGDRCAANYWGQGTQVTVSS"
reported_result = "1.9e+07 M⁻¹ s⁻¹"

